# System: HepG2
# Assay: cell viability relative to DMSO; higher = less toxic
# Cond: 72 h; 100 nM
The following compounds are shown together with reported cell viability values.
Please state the figure in %; there is no need to write the unit.

Answered cases to consult:
compound="CC(C)(C(=O)O)c1ccc(C(=O)CCCN2CCC(OC(c3ccccc3)c3ccccc3)CC2)cc1 [carebastine]" property_measured="cell viability" measured_result=94.3
compound="CCOC(=O)Nc1cc(-c2ccc(C)c(NS(C)(=O)=O)c2)nn2c(C)nnc12 [bromosporine]" property_measured="cell viability" measured_result=102
compound="CN1[C@@H]2CC[C@H]1C[C@@H](OC(=O)c1cc(Cl)cc(Cl)c1)C2 [bemesetron]" property_measured="cell viability" measured_result=91.3
compound=O=S(=O)(/N=C/c1c(O)ccc2ccccc12)c1cccs1 property_measured="cell viability" measured_result=96.8

Challenge: For the compound shown here, C=CC(=O)Nc1cccc(Nc2nc(Nc3ccc(OCCOC)cc3)ncc2F)c1 [AVL-292] , give the reported cell viability.
Response given: 101

Challenge: So what's the measured cell viability for this one? CC(C)(O)CNc1nc(Nc2ccnc(C(F)(F)F)c2)nc(-c2cccc(C(F)(F)F)n2)n1 [enasidenib]
Response given: 110

Challenge: Looking for the measured cell viability of Cc1ccc(S(N)(=O)=O)cc1 [para-toluenesulfonamide] , can you help?
Response given: 110

Challenge: Consider the compound CCCOC(=O)c1ccc(O)cc1 [propyl 4-hydroxybenzoate] and give its measured cell viability.
Response given: 107

Challenge: Give its cell viability value. Item: CCN(Cc1ccncc1)C(=O)C(CO)c1ccccc1 (centres undefined) [tropicamide]
Response given: 107
